- measurement-target: recombinant human HDAC6 (Homo sapiens, UniProt Q9UBN7)
- Sequence (Q9UBN7 1-1215): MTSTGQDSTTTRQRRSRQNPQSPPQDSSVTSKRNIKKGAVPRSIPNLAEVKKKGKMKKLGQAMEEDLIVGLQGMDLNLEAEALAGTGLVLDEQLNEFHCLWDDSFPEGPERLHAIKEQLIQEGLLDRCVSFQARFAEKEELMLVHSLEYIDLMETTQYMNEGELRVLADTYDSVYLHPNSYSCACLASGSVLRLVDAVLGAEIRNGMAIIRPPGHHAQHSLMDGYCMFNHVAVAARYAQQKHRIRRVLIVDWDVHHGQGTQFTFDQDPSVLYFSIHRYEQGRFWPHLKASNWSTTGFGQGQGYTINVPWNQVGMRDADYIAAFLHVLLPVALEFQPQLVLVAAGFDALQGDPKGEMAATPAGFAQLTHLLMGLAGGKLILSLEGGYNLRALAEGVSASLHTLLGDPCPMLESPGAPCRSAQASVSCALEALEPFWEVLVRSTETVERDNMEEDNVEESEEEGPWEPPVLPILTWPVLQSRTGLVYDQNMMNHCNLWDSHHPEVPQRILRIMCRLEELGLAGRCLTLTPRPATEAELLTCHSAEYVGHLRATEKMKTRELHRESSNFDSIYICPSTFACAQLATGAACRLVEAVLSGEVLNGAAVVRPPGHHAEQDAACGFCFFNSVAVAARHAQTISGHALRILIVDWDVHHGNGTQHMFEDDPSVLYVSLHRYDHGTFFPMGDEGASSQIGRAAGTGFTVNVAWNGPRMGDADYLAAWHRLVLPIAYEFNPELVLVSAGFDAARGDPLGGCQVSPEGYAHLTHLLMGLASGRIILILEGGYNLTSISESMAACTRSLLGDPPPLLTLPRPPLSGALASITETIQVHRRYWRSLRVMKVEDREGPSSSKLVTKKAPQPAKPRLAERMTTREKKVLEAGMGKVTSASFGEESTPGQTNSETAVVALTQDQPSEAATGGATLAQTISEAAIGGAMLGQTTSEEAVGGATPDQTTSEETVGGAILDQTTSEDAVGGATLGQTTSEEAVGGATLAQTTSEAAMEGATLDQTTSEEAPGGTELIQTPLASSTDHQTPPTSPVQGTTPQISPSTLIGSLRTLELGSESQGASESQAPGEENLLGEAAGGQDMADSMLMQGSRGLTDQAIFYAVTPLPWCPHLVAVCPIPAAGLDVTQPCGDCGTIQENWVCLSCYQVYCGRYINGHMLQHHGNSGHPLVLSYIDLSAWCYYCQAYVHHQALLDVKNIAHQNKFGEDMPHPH
- assay-name: HDAC isoform inhibition fluorogenic assay (BPS Bioscience kit)
- condition-info: class-IIb
attribute-measured: IC50 (µM)

{"columns": ["structure-string", "observed-result"],
 "data": [
  ["C[C@H](CN(C)Cc1ccccc1)NC(=O)c1ccc(-c2noc(C(F)(F)F)n2)cc1F", 5.03]
]}
